Listing of entries alongside the reported pKd.
Biological target: Skp1-FBXW7 complex (human FBXW7 residues 263-707 with truncated Skp1) (UniProt P63208 1-163)
Where no end group is shown, it is not given here. [ ]: non-standard residue; d: D form. pT = C[C@@H](OP(=O)(O)O)[C@H](N)C(=O)O; pS = N[C@@H](COP(=O)(O)O)C(=O)O; Flu = fluorescein
# pKd = -log10(concentration in molar units)

| binder | pKd |
| --- | --- |
| Flu-VPP[pT]PPGSH [Flu-VPPpTPPGSH (singly phosphorylated fluorescein-tagged DISC1 phosphodegron peptide)] | 5.64 |

# evaluate next
Enquiry: Tell me pKd reported for Flu-VPP[pT]PPG[pS]H [Flu-VPPpTPPGpSH (doubly phosphorylated fluorescein-tagged DISC1 phosphodegron peptide)]
Return: 5.92
